# System: DeltatarO mutant
# assay name: S. aureus survival, RN4220 and DeltatarO strains – OD600, teichoic acid synthesis inhibitors, primary screen (AID 463173)
# measurement context: S. aureus RN4220 wild type/DeltatarO growth, OD600, 18 h, stronger effect = lower value, screened at 18.75 µg/mL (by protocol)
Out of some 52,000 compounds screened, about 4,300 (8.3%) were called active. The full list was thinned out, with actives kept by preference.
measured parameter: survival (%)
Report the value in % with no unit label.

// survival lookup, molecule = CCC(C)NC(=O)C1CCN(S(=O)(=O)c2ccc3c(ccn3CC)c2)CC1 (stereo not given) , result: 8

The reported value for `CCCCNC(=O)C1CCN(S(=O)(=O)c2ccc3c(ccn3CC)c2)CC1` in terms of survival is 99

molecule CCn1ccc2cc(S(=O)(=O)N3CCC(C(=O)NCC(C)c4ccccc4)CC3)ccc21 (stereo not given) , survival observed: 94

Sure, the documented survival for `CCn1ccc2cc(S(=O)(=O)N3CCC(C(=O)NCc4ccc(OC(C)C)cc4)CC3)ccc21` is 95

The molecule `CCn1ccc2cc(S(=O)(=O)N3CCCN(C(=O)Nc4cccc(Cl)c4)CC3)ccc21` showed survival equal to 83
